Data provenance: the supplement of paper PMC12783771

B1: library; numbered along this chain (parent)
chain: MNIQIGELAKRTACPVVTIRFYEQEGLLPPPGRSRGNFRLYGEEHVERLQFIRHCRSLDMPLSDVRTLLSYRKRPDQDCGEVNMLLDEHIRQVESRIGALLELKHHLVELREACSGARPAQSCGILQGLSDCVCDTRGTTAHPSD

- Variants of: B1
- Experiment description: sfGFP reporter fluorescence (15 h) (µM FITC); higher = stronger transcriptional activation
- Condition label: library round: Round 0; ligand: 1 µM Pb
Field: sfGFP reporter fluorescence. Provide a value for each of the variants that follow.

Q. Param item = "R53A" ; retrieve measured sfGFP reporter fluorescence.
A. 0.0665

Q. Another variant: "Y22A"
A. 0.0557

Q. Another variant: "D131V"
A. 0.0905

Q. Another variant: M60L D64K G128M
A. 4.33

Q. Another variant: "R39N"
A. 0.0597

Q. Another variant: "Y22D"
A. 0.0618

Q. Another variant: "R20C"
A. 0.0618

Q. Another variant: "M60W"
A. 0.384

Q. Another variant: "G6Y"
A. 0.0608

Q. Another variant: "C55V"
A. 0.0773

Q. Another variant: "V16D"
A. 0.0975

Q. Another variant: "G98A"
A. 0.0762

Q. Another variant: "E112W"
A. 0.0627

Q. Another variant: "G128C"
A. 0.0964

Q. Another variant: "C123G"
A. 0.0552

Q. Another variant: "D131A"
A. 0.11

Q. Another variant: "L107Q"
A. 0.0852

Q. Another variant: "V16P"
A. 0.088

Q. Another variant: "I3E"
A. 0.0601

Q. Another variant: "L62V"
A. 0.0801

Q. Another variant: "I3T"
A. 0.0667

Q. Another variant: "E7Q"
A. 0.0891
